Assay: gradient 5% acetonitrile 3 min, to 50% in 2 min, to 85% in 15 min, held 3 min, 100 µL/min
Conditions: column: Zorbax Extend-C18 2.1 x 50 mm; eluents: water / acetonitrile, 0.1% formic acid
measure: RP-LC retention time
Number plus unit, in that order.

Known results for molecules:
[[record]]
molecule = "Cc1ccc(-n2c(N3CCCC(C(=O)Nc4ccc(F)c(F)c4)C3)nc3ccsc3c2=O)cc1 (stereo not given)"
measure = "RP-LC retention time"
test_result = "1050 s"

[[record]]
molecule = "COCCOC1CN(C2CCN(C(=O)Nc3ccccc3)CC2)C12CCCCC2 (stereo not given)"
measure = "RP-LC retention time"
test_result = "641 s"

[[record]]
molecule = "CC(C)CN(CCCNC(=O)C1CCN(c2cnn(C)c(=O)c2)C1)CC(C)C (stereo not given)"
measure = "RP-LC retention time"
test_result = "589 s"

[[record]]
molecule = "Cc1cnc2cc(Cl)ccc2c1SCC(=O)O"
measure = "RP-LC retention time"
test_result = "816 s"

[[record]]
molecule = "CCCCn1cc(S(=O)(=O)Nc2cc(F)ccc2C)c2cccnc21"
measure = "RP-LC retention time"
test_result = "995 s"


What measured RP-LC retention time goes with COCCC(=O)NC1CCN(C2=NS(=O)(=O)C(c3ccc(C)c(C)c3)=C2C)CC1 ?
722 s

I have this molecule here, CC1=C(c2ccccc2)S(=O)(=O)N=C1N1CCCN(C(=O)c2ccccc2)CC1 , and I need its recorded RP-LC retention time.
697 s

Quick one: RP-LC retention time for CCn1nnc2ccc(-c3noc(CNC(=O)c4ccccc4)n3)cc21 ?
773 s

Tell me the measured RP-LC retention time of Cc1ccc(NC(=O)c2c(O)c3cccnc3n(-c3ccc(F)cc3)c2=O)c(C)c1 , please.
1320 s

I am curious: what RP-LC retention time value has been reported for CCn1ncc(N2CCC(NC(=O)C(C)(C)C)CC2)cc1=O ?
576 s
